System: IYD (gene 389434)
Test: CCTE_GLTED_hIYD: CCTE's human Iodotyrosine Deiodinase (xIYD) Inhibition Assay, Great Lakes Toxicology and Ecology Division (GLTED) Lab (AID 2284317);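 also: cell-free human IYD enzyme made in baculovirus insect cells; iodide freed from monoiodotyrosine measured by cerium arsenite color change at 420 nm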
Activity calls are given as the source filed them. The calls were made as follows: active = hit-call score of the fitted dose curve at least 0.9, where 1 is the maximum; inconclusive = response in the unintended direction; inactive = score below 0.9.
API: response.call in active, inactive

* CC(C)(C)c1csc(-c2cc3cc(OCc4ccccc4CC(=O)O)ccc3o2)n1 | active
* CN(C)c1ccc(C(=C2C=CC(=[N+](C)C)C=C2)c2ccc(N(C)C)cc2)cc1 | inactive
* O=c1c(-c2ccc(O)cc2)coc2cc(O)cc(O)c12 | inactive

Tell me the assay call for CCN(Cc1cccc(S(=O)(=O)O)c1)c1ccc(C(=C2C=CC(=[N+](CC)Cc3cccc(S(=O)(=O)O)c3)C=C2)c2ccccc2S(=O)(=O)[O-])cc1 please.
active

Tell me the assay call for CCOC(=O)O[C@H](C)OC(=O)c1ccc2c(c1)cc(C(=O)NC1CCN(C(C)C)CC1)n2Cc1cc(-c2ccc(Cl)s2)on1 please.
active

Tell me the assay call for CC(C)(c1cc(Br)c(O)c(Br)c1)c1cc(Br)c(O)c(Br)c1 please.
active

====

Read-out: ABC Transporter (ABCB11), ABCB11 (gene 8647)
Experiment: LTEA_HepaRG_ABCB11: Life Technologies and Expression Analysis (LTEA) Assay for ABC Transporter (ABCB11) using HepaRG (AID 2283463)
Details: mRNA level, 48 h; actives raise or lower the signal
The source made the active and inactive calls. The calls were made as follows: active = hit-call score of the fitted dose curve at least 0.9, where 1 is the maximum; inactive = score below 0.9.
API: response.call in YES = active, NO = inactive

Tell me the assay call for O=C1O[C@H]([C@@H](O)CO)C(O)=C1O please.
NO

Tell me the assay call for CC(C)(c1cc(Br)c(O)c(Br)c1)c1cc(Br)c(O)c(Br)c1 please.
YES

Tell me the assay call for CCCCCCCCCC(=O)O please.
NO

Tell me the assay call for COc1cc(C(=O)NC2CCN(C)CC2)ccc1Nc1ncc2c(n1)N(C1CCCC1)CC(F)(F)C(=O)N2C please.
YES

Tell me the assay call for CCCCCc1ccc(N)cc1 please.
NO

Tell me the assay call for Cc1cc2c(cc1C(F)(F)F)N(C(=O)Nc1ccc(Oc3cccnc3C)nc1)CC2 please.
YES

====

Read-out: Glutathione S-Transferase (GSTA2), GSTA2 (gene 2939)
Test: LTEA_HepaRG_GSTA2: Life Technologies and Expression Analysis (LTEA) Assay for Glutathione S-Transferase (GSTA2) using HepaRG (AID 2283497)
Conditions: mRNA level, 48 h; actives raise or lower the signal
Protocol: LTEA_HepaRG is a cell based, multiplexed-readout assay that uses HepaRG, a human liver cell line, with measurements taken at 48 hours after chemical dosing on a 96-well plate.LTEA_HepaRG_GSTA2 is one of 102 assay component(s) measured in the LTEA HepaRG cell culture assay. It is a marker of Oxidative Stress.Data from the assay component LTEA_HepaRG_GSTA2 was analyzed into 1 endpoint. […]
Activity calls are given as the source filed them. The calls were made as follows: active = hit-call score of the fitted dose curve at least 0.9, where 1 is the maximum; inactive = score below 0.9.
outcome.measure: AC50

Examples with their reported AC50 follow.
* COc1cc(C(=O)NC2CCN(C)CC2)ccc1Nc1ncc2c(n1)N(C1CCCC1)CC(F)(F)C(=O)N2C | 12 µM (active)
* Cc1ncc(CO)c(CO)c1O | inactive
* Clc1cc(Cl)c2c(c1)N=C1CCCCCN1C2 | inactive
* CC(O)CC(C)(C)O (stereo unspecified) | inactive
* O=C=NCCCCCCN=C=O | inactive

Please give AC50, item by item, for the list that follows.
1. c1ccc2ccccc2c1
2. CCCCCCCCCCCCO
3. CC(=O)N1CCN(c2ccc(OC[C@H]3CO[C@](Cn4ccnc4)(c4ccc(Cl)cc4Cl)O3)cc2)CC1

1: inactive; 2: inactive; 3: 11.3 µM (active)

Please give AC50, item by item, for the list that follows.
1. Cc1oc2c(NC(=O)c3c(Cl)cccc3Cl)cccc2c1C(C)(C)O
2. Cc1occc1C(=O)Nc1ccc(C(=O)N2CCC(F)(F)/C(=C\C(=O)N3CCC(N4CCCCC4)CC3)c3ccccc32)cc1
3. O=C(O)c1ccccc1-n1cc(C(=O)O)c(=O)c2cc(Nc3c(F)cc(F)cc3Cl)c(Cl)cc21

1: 38.2 µM (active); 2: 52 µM (active); 3: inactive
